The origin of these recorded values is patent US20070020193A1.

# ASSAY EXPLANATION: Example 2 multiple rising dose inhaled delta-9-THC study: plasma pharmacokinetics
# EXPERIMENTAL CONDITIONS: human, plasma, inhaled, 1.2 mg, tmax, Arithmetic Mean (SD), 1.2 mg m.d., Day 12, Group I
MEASURED ENDPOINT: Tmax (min)
One number for each entry, in min.

## Input Could you please provide reported Tmax for CCCCCc1cc(O)c2c(c1)OC(C)(C)[C@@H]1CCC(C)=C[C@@H]21 [delta-9-THC, delta-9-tetrahydrocannabinol] ? Thanks!
## Output 3.6

----------
# ASSAY EXPLANATION: Example 2 multiple rising dose inhaled delta-9-THC study: plasma pharmacokinetics
# EXPERIMENTAL CONDITIONS: human, plasma, inhaled, 1.2 mg, Cmax, Arithmetic Mean (SD), 1.2 mg m.d., Day 12, Group I
MEASURED ENDPOINT: Cmax
Just the number plus its unit, please.

## Input Could you please provide reported Cmax for CCCCCc1cc(O)c2c(c1)OC(C)(C)[C@@H]1CCC(C)=C[C@@H]21 [delta-9-THC, delta-9-tetrahydrocannabinol] ? Thanks!
## Output 0.0123 µg/mL

----------
# ASSAY EXPLANATION: Example 2 multiple rising dose inhaled delta-9-THC study: plasma pharmacokinetics
# EXPERIMENTAL CONDITIONS: human, plasma, inhaled, 1.2 mg, tmax, median (range), 1.2 mg m.d., Day 12, Group I
MEASURED ENDPOINT: Tmax
Just the number plus its unit, please.

## Input Could you please provide reported Tmax for CCCCCc1cc(O)c2c(c1)OC(C)(C)[C@@H]1CCC(C)=C[C@@H]21 [delta-9-THC, delta-9-tetrahydrocannabinol] ? Thanks!
## Output 3.6 min
